System: MOLT-4 leukemia
PROTOCOL TEXT: NCI tumour cell line growth inhibition, 48 h
# maps each entry to its TGI

Sample records with TGI:
Prompt line: Which TGI is reported for this compound? CCOc1ccc2c(c1)[n+]([O-])c(-c1ccc(Br)cc1)c(N)[n+]2[O-]
Response line: > 100 µM

Prompt line: Bench note: what TGI did O=C(c1ccccc1)n1cc(-c2ccccc2)c2c(=O)[nH]cnc21 show?
Response line: > 100 µM

Prompt line: // lookup TGI for COc1cc2oc(=O)cc(C)c2cc1O
Response line: > 100 µM

Continuing:
Prompt line: # query: TGI of entry Cn1nc(-c2ccc(Cl)cc2)nc2c(=O)n(C)c(=O)nc1-2
Response line: 3.22 µM

Prompt line: Reported TGI for O=C(NCCO)c1ccc([N+](=O)[O-])cc1 : what is it?
Response line: > 100 µM

Prompt line: Look up TGI: COc1ccc(C(c2ccc(OCCN(C)C)cc2)c2cc3ccccc3c3ccccc23)cc1 (stereo unspecified)
Response line: 3.42 µM

Cited source for all entries: PubChem BioAssay (NCI)
